# Study target: recombinant human cannabinoid receptor CB2 (Homo sapiens)
# Construct: (cDNA clone) CNR0200000
# Sequence (P34972 whole entry): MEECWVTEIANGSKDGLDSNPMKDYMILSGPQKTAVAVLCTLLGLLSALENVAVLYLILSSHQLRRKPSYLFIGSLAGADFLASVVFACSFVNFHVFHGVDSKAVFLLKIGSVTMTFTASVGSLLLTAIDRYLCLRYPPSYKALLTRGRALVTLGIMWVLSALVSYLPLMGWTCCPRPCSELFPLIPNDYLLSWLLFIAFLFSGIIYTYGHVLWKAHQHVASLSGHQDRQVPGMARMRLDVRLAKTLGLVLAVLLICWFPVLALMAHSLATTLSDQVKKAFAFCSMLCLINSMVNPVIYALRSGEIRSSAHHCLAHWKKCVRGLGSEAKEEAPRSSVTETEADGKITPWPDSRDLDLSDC
# Procedure summary: Cannabinoid receptor radioligand binding assay, [3H]-CP 55,940 displacement, hCB2
pIC50: −log10 of the molar value.
Consider the following compounds; for each one, report its pIC50.

// query Would you mind telling me what pIC50 value was observed for "Cc1cc2cc(C(=O)c3ccccc3OC(F)(F)F)sc2n1CCN1CCOCC1" ?
// result > 7.00

// query Field request: pIC50 | item: "COc1ccc(C(=O)c2cc3cc(C)n(CCCN(C)S(C)(=O)=O)c3s2)cc1"
// result 5.00 to 6.00

// query Query (compound): "COc1ccc(C(=O)c2cc3cc(C)n(CCN4CCCCC4)c3s2)c(O)c1" ; field requested: pIC50
// result 6.00 to 7.00

// query pIC50 for "COc1ccc(C(=O)c2cc3cc(C)n(CCN4CCCCC4)c3s2)c(F)c1" ?
// result > 7.00

// query If you can, please state the reported pIC50 value of "Cc1cc2cc(C(=O)c3ccncc3)sc2n1CCN1CCOCC1" .
// result 5.00 to 6.00
